Kindly supply the reported apparent KD of MS2 coat protein values for the records listed here.
# System: MS2 coat protein
# method: apparent KD of MS2 coat protein; designed switch direction (-1 OFF switch, 1 ON switch): -1; higher = weaker reporter binding
# conditions: input ligand: microRNA oligo, concentration not stated
Please respond with the number in nM and leave the unit unwritten.

Any idea what apparent KD of MS2 coat protein was measured for AGAUGCUCAAGUCGACAUGAGGAUCACCCAUGUACAGUAAACGAGGAUAUCCGAGAUAAAUAAUAGGAGAAGGCGUGAUCAUGA [Mat - Exclusion NG 3 - Mod of JL - D55] (Eterna round: R96, puzzle: Exclusion NG 3) ? 66

Any idea what apparent KD of MS2 coat protein was measured for UAUAUAUAGUAAGGAUAUGUAAUUAUUUUAUCAACAGAAGGUACUGACAUGAGGAUCACCCAUGUUUUAGUGUGGGCAUGUAGA [JMF's solution 49] (Eterna round: R96, puzzle: Exclusion NG 1) ? 61.7

Any idea what apparent KD of MS2 coat protein was measured for ACAUGUCAUCGAGGAUAUUGGACACAUGAGGAUCACCCAUGUACUCGGUUGCUCUAGCAUGAGUUCGAGAAGGCGAUGUACAUU [Ex NG2 #80] (Eterna round: R96, puzzle: Exclusion NG 2) ? 229

---

# Tested on: K4 kissing-loop RNA reporter
# method: apparent KD of K4 kissing-loop reporter; higher = weaker reporter binding
# conditions: Eterna round: R107; input ligand: tryptophan 2.4 mM
Kindly supply the reported apparent KD of K4 kissing-loop reporter values for the records listed here.
Please respond with the number in nM and leave the unit unwritten.

What value of apparent KD of K4 kissing-loop reporter on K4 kissing-loop RNA reporter does GCGGUGUUAUGCCCGAGGGUAUAGUUGCCAAAGGAUAUGAUUGUUGUCAGAAGGUUGCGCUUGAUCAGUGAUGUUGGUCUCCAAC [theeternabot_sameState_KL_FMN_A_12] have? 337

What value of apparent KD of K4 kissing-loop reporter on K4 kissing-loop RNA reporter does CGCCGUAAGGCGGUCGCUCCCACUCCGGAAGGAGCGCCCGCAAGGGCAGGUAGGUCGCCGGAGUGAUGUUCCGGUGGAGGGACCG [#2 Exclusion - Arginine A Attempt #7 (Inspired by Omei)] have? 186

What value of apparent KD of K4 kissing-loop reporter on K4 kissing-loop RNA reporter does GAGAUAGAGGCGGCCGCCACUAGUGAUGUUAGUGAUGUUAGAAAGAGAAUAGAACAGGGAUUUGAUAGGACCGGGCCAGAUGGAG [wwemullin] have? 63

What value of apparent KD of K4 kissing-loop reporter on K4 kissing-loop RNA reporter does UGUACCGAGUCAGGAUAUGCCGUCGAAAGACGAAAGCAGUGAUGUUGCAUCGAUCGAAAGAUCGUUGCAGAAGGGACUUGGUACU [FmnBS 23 #SwitchBubble #StaticStem #DoubleMagnetSystem] have? 297

What value of apparent KD of K4 kissing-loop reporter on K4 kissing-loop RNA reporter does AAUUUAUGAUCUGAUACCAGACUUUAUCUUGUUUAUAAGUCAAGUGAUGUUUGACUAUUAGUCCCUUGGCAGCAGUAUUGUUUAA [#17 K4 Theophylline B Same State] have? 239

---

# System: K4 kissing-loop RNA reporter;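 note: bound reporter read as fluorescence of individual clusters on recovered sequencing chips by microscopy, with normalized cluster intensities fitted with a binding model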
# method: apparent KD of K4 kissing-loop reporter; higher = weaker reporter binding
# conditions: Eterna round: R107; input ligand: arginine 13.2 mM
measurementType: apparent KD of K4 kissing-loop reporter (nM)
Please respond with the number in nM and leave the unit unwritten.

Any idea what apparent KD of K4 kissing-loop reporter was measured for CCCUCACGAGUGAUGUUCGUAGGGUACAGUCAGGAUAUCAUGCGGUUGAGAAGGGACAGAGAGGGCGGCGGCGGGUUGCUCCUCU [Beeded] ? 240

Any idea what apparent KD of K4 kissing-loop reporter was measured for GGGCCUAUUGAUGCUGGAGCAAUUCUGGAAGGAGCGCUCAAAGGAGCAGGUAGGUCGCCAGUAUGCAAGGGCAGUGAUGUUGCCC [Ersoarxe] ? 164

Any idea what apparent KD of K4 kissing-loop reporter was measured for UGACAUUGCUCAGAUACCAGUCAUGAGGAUCACCCAUGGGCCAAACGUACAAUAAUAAAUGACCCUUGGCAGCUGAGCAAUGUCU [TheoBX 14] ? 36.9

Any idea what apparent KD of K4 kissing-loop reporter was measured for CCAUCGCUAUUCGAUACCAGUCAUUUUUUAUUUUUUUUUUUUUUUGGAGUGAUGUUCCAAGACCCUUGGCAGCGAAUAGUGAUGG [whbob_SS_Theo_B_th77] ? 109

Any idea what apparent KD of K4 kissing-loop reporter was measured for GGACGACAGUCGGCCGCCACUCACAGCCGCCAGUGAUGUUGGAUUGUAGCGGAGUGAUGUUUCGCGAGGACCGGGACUGCAGUCC [Same State Tryptophan B GF 15] ? 380

Any idea what apparent KD of K4 kissing-loop reporter was measured for UCCUGCAAUCUGCCACGAAAGUGGAUUGAUACCAGAGUCGAAAGACUCCCUUGGCAGCGAGUGAUGUUCGUAGCAGGUAAAUAAA [MatMod 6 - Jieux - Exclusion - Theophylline A] ? 221
